# System under test: Cannabinoid receptor 2 (Homo sapiens, UniProt P34972)
# Sequence (P34972 whole entry): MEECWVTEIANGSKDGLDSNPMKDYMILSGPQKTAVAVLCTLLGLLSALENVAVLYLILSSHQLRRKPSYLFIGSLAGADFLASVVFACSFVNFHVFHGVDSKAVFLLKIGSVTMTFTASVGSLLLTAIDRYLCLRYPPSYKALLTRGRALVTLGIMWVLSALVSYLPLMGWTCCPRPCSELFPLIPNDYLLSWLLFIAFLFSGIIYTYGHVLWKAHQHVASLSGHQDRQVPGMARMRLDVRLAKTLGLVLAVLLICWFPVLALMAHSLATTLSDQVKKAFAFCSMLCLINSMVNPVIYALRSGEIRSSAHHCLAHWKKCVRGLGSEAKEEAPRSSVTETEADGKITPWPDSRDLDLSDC
# Assay overview: Inhibition of human CB2 receptor internalization expressed in CHO cells assessed as inhibition of [3H]-CP55940 uptake preincubated for 1 hr followed by radioligand addition measured after 1 hr by liquid scintillation counting analysis relative to control
# Type: cell-based
# Parameters: concentration or dose not given beside the values
# Condition info: concentration not given here
Use 60% as the dividing line for inhibition, with the line itself on the Yes side and lower values as No.

Has CCCCCCCCC/C=C/C=C/C(=O)NCC(C)(C)O [TETRAHYDROBUNGEANOOL] a recorded inhibition greater than or equal to 60%?
Yes

Subsequent entry: C/C=C/C=C/C=C/CC/C=C/C=C/C(=O)NCC(C)C
No

Subsequent entry: CC/C=C/C/C=C\CC/C=C/C=C/C(=O)NCC(C)(C)O
Yes

Subsequent entry: C/C=C/C=C/C=C\CC/C=C/C=C/C(=O)NCC(C)(C)O
Yes

Subsequent entry: C/C=C/C=C/C=C/CC/C=C/C=C/C(=O)NCC(C)(C)O
No

Subsequent entry: C/C=C/C=C/C=C\CC/C=C/C(=O)NCC(C)(O)CO (stereo unspecified)
Yes

----------
Would you mind telling me the reported inhibition of each entry?
# System under test: Cannabinoid receptor 1 (Homo sapiens, UniProt P21554)
# Sequence (P21554 whole entry): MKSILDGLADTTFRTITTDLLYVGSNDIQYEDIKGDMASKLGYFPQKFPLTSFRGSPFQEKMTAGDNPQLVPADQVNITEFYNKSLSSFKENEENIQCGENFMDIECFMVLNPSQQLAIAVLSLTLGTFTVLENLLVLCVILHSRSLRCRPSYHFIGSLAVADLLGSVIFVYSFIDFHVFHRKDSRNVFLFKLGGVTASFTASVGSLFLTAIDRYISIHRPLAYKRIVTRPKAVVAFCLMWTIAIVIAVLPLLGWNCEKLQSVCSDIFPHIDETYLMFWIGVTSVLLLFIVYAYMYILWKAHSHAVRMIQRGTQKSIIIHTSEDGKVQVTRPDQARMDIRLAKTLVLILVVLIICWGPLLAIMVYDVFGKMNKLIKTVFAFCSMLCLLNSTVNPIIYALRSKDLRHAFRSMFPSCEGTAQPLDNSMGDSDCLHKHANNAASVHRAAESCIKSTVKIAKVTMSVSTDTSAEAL
# Assay overview: Inhibition of human CB1 receptor internalization expressed in CHO cells assessed as inhibition of [3H]-Win55212-2 uptake preincubated for 1 hr followed by radioligand addition measured after 1 hr by liquid scintillation counting analysis relative to control
# Type: cell-based
# Design: concentration or dose not given beside the values
# Condition info: concentration not given here
Give the value in % but do not write % after it.

API: value(readout=inhibition, system=Cannabinoid receptor 1 (Homo sapiens, UniProt P21554)) for record C/C=C/C=C/C=C/CC/C=C/C=C/C(=O)NCC(C)(C)O
39

Subsequent entry: C/C=C/C=C/C=C\CC/C=C/C(=O)NCC(C)(O)CO (stereo unspecified)
76

Subsequent entry: CCCCCCCCC/C=C/C=C/C(=O)NCC(C)(C)O [TETRAHYDROBUNGEANOOL]
30

Subsequent entry: CC/C=C/C/C=C\CC/C=C/C=C/C(=O)NCC(C)(C)O
45

Subsequent entry: C/C=C/C=C/C=C\CC/C=C/C=C/C(=O)NCC(C)(C)O
31

Subsequent entry: C/C=C/C=C/C=C/CC/C=C/C=C/C(=O)NCC(C)C
37

----------
# System under test: Cannabinoid receptor 1 (Homo sapiens)
# Assay overview: Displacement of [3H]-Win55212-2 from human CB1 receptor expressed in CHO cells preincubated for 1 hr followed by radioligand addition measured after 1 hr by liquid scintillation counting analysis
# Assay type: cell-based
Under this convention, 1 (yes) denotes IC50 strictly below 2000 nM and 0 (no) denotes IC50 at or above 2000 nM.

Please let me know if C/C=C/C=C/C=C/CC/C=C/C=C/C(=O)NCC(C)C shows IC50 below 2000 nM.
1 (yes)

Subsequent entry: CC/C=C/C/C=C\CC/C=C/C=C/C(=O)NCC(C)(C)O
0 (no)

Subsequent entry: CCCCCCCCC/C=C/C=C/C(=O)NCC(C)(C)O [TETRAHYDROBUNGEANOOL]
0 (no)

Subsequent entry: C/C=C/C=C/C=C/CC/C=C/C=C/C(=O)NCC(C)(C)O
1 (yes)

Subsequent entry: C/C=C/C=C/C=C\CC/C=C/C(=O)NCC(C)(O)CO (stereo not drawn)
1 (yes)

Subsequent entry: C/C=C/C=C/C=C/CC/C=C/C(=O)NCC(C)(C)O
1 (yes)

Subsequent entry: C/C=C/C=C/C=C\CC/C=C/C=C/C(=O)NCC(C)(C)O
1 (yes)

Subsequent entry: C/C=C/C=C/C=C\CC/C=C/C(=O)NCC(C)(C)O
0 (no)
